target-or-test-system: CYP2D6 (Homo sapiens)
Construct: human liver microsomes (0.25 mg/mL); from tissue; host or cells: human liver microsomes
Sequence (P10635 whole entry): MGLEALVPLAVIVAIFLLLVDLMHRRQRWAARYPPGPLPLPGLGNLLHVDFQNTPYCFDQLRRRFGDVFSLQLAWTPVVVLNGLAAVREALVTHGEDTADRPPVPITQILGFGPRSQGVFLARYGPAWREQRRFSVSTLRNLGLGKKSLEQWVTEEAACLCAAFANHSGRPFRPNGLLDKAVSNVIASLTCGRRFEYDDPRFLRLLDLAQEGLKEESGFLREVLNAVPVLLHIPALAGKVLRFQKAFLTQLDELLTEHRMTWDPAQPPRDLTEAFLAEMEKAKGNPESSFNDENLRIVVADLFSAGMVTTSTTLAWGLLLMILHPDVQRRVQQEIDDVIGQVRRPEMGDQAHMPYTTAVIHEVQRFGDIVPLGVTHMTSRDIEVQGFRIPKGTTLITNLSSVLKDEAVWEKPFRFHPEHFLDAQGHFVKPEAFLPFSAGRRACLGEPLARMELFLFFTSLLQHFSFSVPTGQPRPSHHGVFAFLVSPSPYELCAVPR
assay-explanation: Inhibitory effect on CYP coenzyme activity, human liver microsomes
Type: in vitro ADME
measurement-context: 10 μM compound, human liver microsomes 0.25 mg/mL, substrate dextromethorphan, 15 minutes
measured-attribute: CYP2D6 coenzyme activity (%) with respect to control group not treated
Hi! Could you send only the number? It should be in %, unit omitted.

Example molecules with recorded CYP2D6 coenzyme activity (%) with respect to control group not treated:
### Prompt Could you tell me which CYP2D6 coenzyme activity (%) with respect to control group not treated is on file for CC(C)n1ccc2c(NN=C(C#N)C#N)cccc2c1=O [Compound 6] ?
### Response 85.4

### Prompt // returns reported CYP2D6 coenzyme activity (%) with respect to control group not treated for input Cn1c(=O)sc2cc(NN=C(C#N)C#N)ccc21 [Compound 14]
### Response 85.6

### Prompt Any idea what its CYP2D6 coenzyme activity (%) with respect to control group not treated is? The molecule is N#CC(C#N)=NNc1ccc2c(c1)sc(=O)n2C(F)F [Compound 19]
### Response 40.5

Here is another molecule to look at.
### Prompt Which measured CYP2D6 coenzyme activity (%) with respect to control group not treated value corresponds to N#CC(C#N)=NNc1ccc2c(c1)n(C(F)F)c(=O)n2C(F)F [Compound 24] ?
### Response 82.5

* * *

target-or-test-system: tau protein (Homo sapiens, UniProt P10636)
Construct: BiFC fluorescent-protein fragments (type and halves not specified)
Sequence (P10636 1-441 isoform P10636-8): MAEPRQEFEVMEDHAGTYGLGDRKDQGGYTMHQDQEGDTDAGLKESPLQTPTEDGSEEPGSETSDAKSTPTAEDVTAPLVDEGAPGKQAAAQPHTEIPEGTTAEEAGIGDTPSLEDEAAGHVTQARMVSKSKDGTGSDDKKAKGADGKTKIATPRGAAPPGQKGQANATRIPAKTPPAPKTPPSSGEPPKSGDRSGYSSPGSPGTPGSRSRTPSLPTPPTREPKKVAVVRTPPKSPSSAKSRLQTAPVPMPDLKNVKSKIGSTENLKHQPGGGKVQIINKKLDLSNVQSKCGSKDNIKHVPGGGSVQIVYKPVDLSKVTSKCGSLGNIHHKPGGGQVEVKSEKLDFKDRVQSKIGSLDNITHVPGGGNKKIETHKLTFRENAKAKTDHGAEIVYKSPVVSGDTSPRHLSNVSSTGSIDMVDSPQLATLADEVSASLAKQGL
assay-explanation: Tau-BiFC cell model, inhibition of Forskolin-induced tau protein aggregation
measurement-context: tau-BiFC cells, Forskolin 30 μM, 48 hours
measured-attribute: IC50 (µM)
The reply should contain only the number, in µM.

Worked examples, 3 compounds total:
### Prompt Consider the compound CCn1c(=O)n(C)c2cc(NN=C(C#N)C#N)ccc21 and give its measured IC50.
### Response 0.03

### Prompt Can you look up the measured IC50 of CC(C)n1c(=O)n(C2CC2)c2ccc(NN=C(C#N)C#N)cc21 for me?
### Response 0.08

### Prompt Value lookup for IC50; key = N#CC(C#N)=NNc1ccc2[nH]c(=O)oc2c1
### Response 8.4

---
### Prompt Fill blank: measured IC50 of the compound Cn1c(=O)n(C(F)F)c2cc(NN=C(C#N)C#N)ccc21 is ____.
### Response 0.2

### Prompt Reported IC50 for CC(C)n1c(=O)n(C)c2ccc(NN=C(C#N)C#N)cc21 : what is it?
### Response 0.02

### Prompt Endpoint output: IC50 of Cn1c(=O)n(C)c2cc(NN=C(C#N)C#N)ccc21 . Value?
### Response 0.2

* * *

assay-explanation: Liver microsome stability
Type: in vitro ADME
measurement-context: rat liver microsomes 0.25 mg/mL, 1 μM compound, 37° C., 30 minutes, NADPH
Method: The stability of liver microsomes due to the compounds prepared according to Examples 1 to 57 was confirmed. […] The amount of the substrate remaining after the reaction was analyzed using the Shimadzu Nexera XR system and TSQ Vantage (Thermo). […]
Category scheme (Rat (%) amount of substrate remaining after the reaction): low value = under 80%, medium value = from 80% up to 90%, high value = 90% and over

### Prompt Class for COc1cc(NN=C(C#N)C#N)cc2c1n(C)c(=O)n2C ?
### Response medium value

***
### Prompt Kindly identify the class of CC(C)n1c(=O)n(C(C)C)c2ncc(NN=C(C#N)C#N)cc21 .
### Response low value

### Prompt Would you mind sorting Cn1c(=O)n(C)c2ncc(NN=C(C#N)C#N)cc21 into the appropriate category?
### Response high value

### Prompt Hi, small favor: classify CC(C)n1c(=O)oc2cc(NN=C(C#N)C#N)ccc21 by its Rat (%) amount of substrate remaining after the reaction when you get a moment.
### Response low value

### Prompt State the class of the compound shown: CC(C)n1c(=O)n(C)c2ccc(NN=C(C#N)C#N)cc21
### Response medium value

### Prompt Which class does N#CC(C#N)=NNc1cccc2c(=O)[nH]ccc12 fall in?
### Response high value

* * *

assay-explanation: Liver microsome stability
Type: in vitro ADME
measurement-context: mouse liver microsomes 0.25 mg/mL, 1 μM compound, 37° C., 30 minutes, NADPH
I'd appreciate it if you marked entries Criterion met when Mouse (%) amount of substrate remaining after the reaction is lower than 70% and Criterion not met when it is not.

Worked cases, answers included:
### Prompt Does this compound meet the criterion Mouse (%) amount of substrate remaining after the reaction < 70%? Cn1c(=O)n(C)c2ncc(NN=C(C#N)C#N)cc21 [Compound 12]
### Response Criterion not met

### Prompt Is it true that Mouse (%) amount of substrate remaining after the reaction reported for N#CC(C#N)=NNc1ccc2[nH]c(=O)sc2c1 [Compound 13] is less than 70%?
### Response Criterion not met

### Prompt Is the reported Mouse (%) amount of substrate remaining after the reaction for CCn1c(=O)n(C(C)C)c2ncc(NN=C(C#N)C#N)cc21 [Compound 55] strictly below 70%?
### Response Criterion not met

### Prompt hey, is Mouse (%) amount of substrate remaining after the reaction for N#CC(C#N)=NNc1ccc2c(c1)sc(=O)n2C(F)F [Compound 19] lower than 70% or not?
### Response Criterion met

### Prompt Record CC(C)n1ccc2ccc(NN=C(C#N)C#N)cc2c1=O [Compound 3] : is its Mouse (%) amount of substrate remaining after the reaction strictly below 70%?
### Response Criterion met

Then there is this compound:
### Prompt Bench note: check whether CCn1c(=O)n(C)c2ccc(NN=C(C#N)C#N)cc21 [Compound 35] shows Mouse (%) amount of substrate remaining after the reaction below 70%
### Response Criterion not met

* * *

# key: entry, value: pIC50
target-or-test-system: tau protein (Homo sapiens)
Construct: BiFC fluorescent-protein fragments (type and halves not specified)
assay-explanation: Tau-BiFC cell model, inhibition of Forskolin-induced tau protein aggregation
measurement-context: tau-BiFC cells, Forskolin 30 μM, 48 hours
Would you please state pIC50, meaning minus log10 of the concentration in mol/L, as a bare number?

### Prompt Fill in the recorded pIC50 for this compound, with tau protein (Homo sapiens) as test system: CC(C)n1c(=O)n(C(F)F)c2cc(NN=C(C#N)C#N)ccc21
### Response 8.00

### Prompt Request - read-out pIC50 | tested on tau protein (Homo sapiens) | compound N#CC(C#N)=NNc1ccc2c(c1)n(C(F)F)c(=O)n2C(F)F
### Response 6.70

### Prompt For the record Cn1c(=O)sc2cc(NN=C(C#N)C#N)ccc21 , what value of pIC50 is listed for tau protein (Homo sapiens)?
### Response 7.22

Others:
### Prompt Query the reported pIC50 for tau protein (Homo sapiens); item: CC(C)n1ccc2ccc(NN=C(C#N)C#N)cc2c1=O
### Response 6.70

### Prompt What measured pIC50 is associated with CC(C)n1c(=O)n(C2CC2)c2ncc(NN=C(C#N)C#N)cc21 on tau protein (Homo sapiens)?
### Response 6.80

* * *

target-or-test-system: CYP3A4 (Homo sapiens, UniProt P08684)
Construct: human liver microsomes (0.25 mg/mL); from tissue; host or cells: human liver microsomes
Sequence (P08684 whole entry): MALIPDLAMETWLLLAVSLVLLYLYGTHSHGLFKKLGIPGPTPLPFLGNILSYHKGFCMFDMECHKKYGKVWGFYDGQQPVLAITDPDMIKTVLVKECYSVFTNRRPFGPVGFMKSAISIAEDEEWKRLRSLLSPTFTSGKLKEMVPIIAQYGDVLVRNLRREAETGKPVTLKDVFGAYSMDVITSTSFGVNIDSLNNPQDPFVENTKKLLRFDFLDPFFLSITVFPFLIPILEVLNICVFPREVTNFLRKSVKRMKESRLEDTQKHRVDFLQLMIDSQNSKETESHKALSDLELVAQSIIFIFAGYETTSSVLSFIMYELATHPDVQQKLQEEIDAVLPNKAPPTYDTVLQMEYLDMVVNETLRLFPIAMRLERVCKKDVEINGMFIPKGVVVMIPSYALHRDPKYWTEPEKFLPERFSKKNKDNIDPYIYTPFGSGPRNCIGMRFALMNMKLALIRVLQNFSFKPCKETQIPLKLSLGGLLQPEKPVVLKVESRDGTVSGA
assay-explanation: Inhibitory effect on CYP coenzyme activity, human liver microsomes
Type: in vitro ADME
measurement-context: 10 μM compound, human liver microsomes 0.25 mg/mL, substrate midazolam, 15 minutes
Binary label based on CYP3A4 coenzyme activity (%) with respect to control group not treated with cut-off 90%: below gives 1, not below gives -1.

Consider the following illustrative entries.
### Prompt Here's an entry: COc1cc(NN=C(C#N)C#N)cc2c1n(C)c(=O)n2C . Is its CYP3A4 coenzyme activity (%) with respect to control group not treated below 90%?
### Response -1

### Prompt Determine whether this compound shows CYP3A4 coenzyme activity (%) with respect to control group not treated lower than 90% (ties excluded): CCn1c(=O)n(C)c2ccc(NN=C(C#N)C#N)cc21
### Response -1

### Prompt Field: below-cutoff. Rule: recorded CYP3A4 coenzyme activity (%) with respect to control group not treated strictly less than 90%. Subject: CC(C)n1c(=O)sc2cc(NN=C(C#N)C#N)ccc21
### Response 1

Continuing:
### Prompt Does the reported CYP3A4 coenzyme activity (%) with respect to control group not treated of the following compound sit strictly below 90%? N#CC(C#N)=NNc1ccc2c(c1)n(C(F)F)c(=O)n2C(F)F
### Response 1

### Prompt Bench note: check whether Cn1c(=O)n(C(F)F)c2cc(NN=C(C#N)C#N)ccc21 shows CYP3A4 coenzyme activity (%) with respect to control group not treated below 90%
### Response -1

### Prompt Input N#CC(C#N)=NNc1ccc2c(c1)sc(=O)n2C(F)F ; condition: CYP3A4 coenzyme activity (%) with respect to control group not treated strictly below 90%. Does it hold?
### Response 1

* * *

target-or-test-system: tau protein (Homo sapiens, UniProt P10636)
Construct: BiFC fluorescent-protein fragments (type and halves not specified)
assay-explanation: Tau-BiFC cell model, inhibition of Forskolin-induced tau protein aggregation
measurement-context: tau-BiFC cells, Forskolin 30 μM, 48 hours
# note: boundary value 300 nM maps to No; IC50 below it maps to Yes

Example entries and their recorded answers appear below.
### Prompt Find out if reported IC50 for Cn1c(=O)oc2cc(NN=C(C#N)C#N)ccc21 is less than 300 nM
### Response No

### Prompt Could you please tell me whether IC50 recorded for CC(C)n1c(=O)n(C(C)C)c2cc(NN=C(C#N)C#N)ccc21 is less than 300 nM?
### Response Yes

### Prompt Does the reported IC50 of the following compound sit strictly below 300 nM? CCn1c(=O)n(C(F)F)c2cc(NN=C(C#N)C#N)ccc21
### Response Yes

Continuing:
### Prompt Record Cn1c(=O)n(C)c2cc(NN=C(C#N)C#N)c(F)cc21 : is its IC50 strictly below 300 nM?
### Response Yes
